tested on: Mycobacterium tuberculosis; experiment: Antimicrobial activity against replicating Mycobacterium tuberculosis after 8 days by micro plate alamar blue assay; assay type: functional; details: 192 h
Mark each entry 1 (yes) if its MIC90 sits below 4 µM, and 0 (no) for all others.

Record CO[C@H]1/C=C/O[C@@]2(C)Oc3c(C)c(NCc4ccccc4)c4c(c3C2=O)C(=O)C(/C=N/N2CCN(C)CC2)=C(NC(=O)/C(C)=C\C=C\[C@H](C)[C@H](O)[C@@H](C)[C@@H](O)[C@@H](C)[C@H](OC(C)=O)[C@@H]1C)C4=O : is its MIC90 strictly below 4 µM?
0 (no)

Record CO[C@H]1/C=C/O[C@@]2(C)Oc3c(c4c5c(nn(CCO)c5c3C)C(=CC4=O)NC(=O)/C(C)=C\C=C\[C@H](C)[C@H](O)[C@@H](C)[C@@H](O)[C@@H](C)[C@H](OC(C)=O)[C@@H]1C)C2=O : is its MIC90 strictly below 4 µM?
0 (no)

Record CO[C@H]1/C=C/O[C@@]2(C)Oc3c(C)c(NCCO)c4c(c3C2=O)C(=O)C=C(NC(=O)/C(C)=C\C=C\[C@H](C)[C@H](O)[C@@H](C)[C@@H](O)[C@@H](C)[C@H](OC(C)=O)[C@@H]1C)C4=O : is its MIC90 strictly below 4 µM?
0 (no)

Record C/C=C/Nc1c(C)c2c3c4c(O)c(/C=N/N5CCN(C)CC5)c(c(O)c14)NC(=O)/C(C)=C\C=C\[C@H](C)[C@H](O)[C@@H](C)[C@@H](O)[C@@H](C)[C@H](OC(C)=O)[C@H](C)[C@@H](OC)/C=C/O[C@@](C)(O2)C3=O : is its MIC90 strictly below 4 µM?
0 (no)

Record CO[C@H]1/C=C/O[C@@]2(C)Oc3c(C)c(NCc4ccccc4)c4c(c3C2=O)C(=O)C=C(NC(=O)/C(C)=C\C=C\[C@H](C)[C@H](O)[C@@H](C)[C@@H](O)[C@@H](C)[C@H](OC(C)=O)[C@@H]1C)C4=O : is its MIC90 strictly below 4 µM?
1 (yes)

Record CONc1c(C)c2c3c4c1C(=O)C(=CC4=O)NC(=O)/C(C)=C\C=C\[C@H](C)[C@H](O)[C@@H](C)[C@@H](O)[C@@H](C)[C@H](OC(C)=O)[C@H](C)[C@@H](OC)/C=C/O[C@@](C)(O2)C3=O : is its MIC90 strictly below 4 µM?
1 (yes)

Further cases:
Record CO[C@H]1/C=C/O[C@@]2(C)Oc3c(C)c(O)c4c(O)c(c(/C=N/N5CCN(C)CC5)c(O)c4c3C2=O)NC(=O)/C(C)=C\C=C\[C@H](C)[C@H](O)[C@@H](C)[C@@H](O)[C@@H](C)[C@H](OC(C)=O)[C@@H]1C : is its MIC90 strictly below 4 µM?
1 (yes)

Record CO[C@H]1/C=C/O[C@@]2(C)Oc3c(C)c(NCc4ccccc4)c4c(O)c(c(/C=N/N5CCN(C)CC5)c(O)c4c3C2=O)NC(=O)/C(C)=C\C=C\[C@H](C)[C@H](O)[C@@H](C)[C@@H](O)[C@@H](C)[C@H](OC(C)=O)[C@@H]1C : is its MIC90 strictly below 4 µM?
0 (no)

---

# MIC90 per entry
system: Escherichia coli; test: Antimicrobial activity against Escherichia coli EC2880 mutant after 16 to 20 hrs; assay type: functional
Respond with the bare value in µM.

Worked examples, 3 compounds total:
Report MIC90 for CO[C@H]1/C=C/O[C@@]2(C)Oc3c(C)c(OS(=O)(=O)c4ccc(C)cc4)c4c(c3C2=O)C(=O)C=C(NC(=O)/C(C)=C\C=C\[C@H](C)[C@H](O)[C@@H](C)[C@@H](O)[C@@H](C)[C@H](OC(C)=O)[C@@H]1C)C4=O please.
3.12

Report MIC90 for CO[C@H]1/C=C/O[C@@]2(C)Oc3c(C)c(O)c4c(c3C2=O)C(=O)C(/C=N/N2CCN(C)CC2)=C(NC(=O)/C(C)=C\C=C\[C@H](C)[C@H](O)[C@@H](C)[C@@H](O)[C@@H](C)[C@H](OC(C)=O)[C@@H]1C)C4=O please.
0.1

Report MIC90 for CO[C@H]1/C=C/O[C@@]2(C)Oc3c(C)c(N(C)C)c4c(c3C2=O)C(=O)C=C(NC(=O)/C(C)=C\C=C\[C@H](C)[C@H](O)[C@@H](C)[C@@H](O)[C@@H](C)[C@H](OC(C)=O)[C@@H]1C)C4=O please.
12.5

Switching to the query record.
Report MIC90 for CO[C@H]1/C=C/O[C@@]2(C)Oc3c(C)c(N)c4c(c3C2=O)C(=O)C=C(NC(=O)/C(C)=C\C=C\[C@H](C)[C@H](O)[C@@H](C)[C@@H](O)[C@@H](C)[C@H](OC(C)=O)[C@@H]1C)C4=O please.
12.5
